# Test System: FLuc-C-HiBiT (Photinus pyralis, UniProt P08659)
# Construct: firefly luciferase with C-terminal HiBiT tag, E. coli expressed
# Sequence (P08659 whole entry, looked up): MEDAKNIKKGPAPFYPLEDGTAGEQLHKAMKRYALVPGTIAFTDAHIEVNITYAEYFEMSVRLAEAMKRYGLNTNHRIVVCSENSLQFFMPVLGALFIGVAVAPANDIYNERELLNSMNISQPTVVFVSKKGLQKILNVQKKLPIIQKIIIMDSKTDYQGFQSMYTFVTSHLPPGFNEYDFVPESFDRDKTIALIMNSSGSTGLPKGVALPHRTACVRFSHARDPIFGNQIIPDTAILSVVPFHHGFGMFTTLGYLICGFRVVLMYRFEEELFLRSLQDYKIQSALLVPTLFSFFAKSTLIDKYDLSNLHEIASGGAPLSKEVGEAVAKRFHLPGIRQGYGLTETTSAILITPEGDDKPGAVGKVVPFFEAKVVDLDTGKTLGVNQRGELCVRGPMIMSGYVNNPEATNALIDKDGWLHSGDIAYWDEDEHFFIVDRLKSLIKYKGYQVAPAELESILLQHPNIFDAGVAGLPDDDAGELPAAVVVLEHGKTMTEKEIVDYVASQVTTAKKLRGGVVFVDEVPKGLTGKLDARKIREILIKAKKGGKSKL
# Test Description: biochemical
# Experimental Setup: enzyme activity, 10 uM ATP; read-out: IC50 or SDR50 (mM) / FLuc E
Measure Name: IC50 (µM)

O=C(c1cc(-c2ccc(F)cc2)nc2ccccc12)N1CCC(c2nc(C3CCOCC3)no2)C1 (stereo not shown) [NCGC00453669-01] : 9.89
O=C1c2cnc(-c3cccc(F)c3)nc2OCCN1c1ccccc1 [NCGC00413626-01] : 14.3
O=C(O)c1cccc(-c2noc(-c3ccccc3F)n2)c1 [PTC124] : 0.00154

A = CCOc1ccc(-c2cc(CCCC(=O)NCCc3ccc(SC)cc3)no2)cc1 [NCGC00110854-01]
B = Cc1ccc(Nc2c(-c3ccc(N(C)C)cc3)nc3[nH]cnn23)cc1 [NCGC00105887-01]
## Input Quick check, higher IC50 between A and B ? Could you answer with the label of the item you picked?
## Output B
(B: 12.4 µM, A: 3.13 µM)

---

# Test System: FLuc-C-HiBiT (Photinus pyralis, UniProt P08659)
# Construct: firefly luciferase with C-terminal HiBiT tag, E. coli expressed
# Test Description: biochemical
# Experimental Setup: enzyme activity, 10 uM ATP; read-out: IC50 or SDR50 (mM) / FLuc E
# Method: The enzyme activity of FLuc-N-HiBiT, FLuc-C-HiBiT, and FLuc-C-NLuc was measured similar to P. pyralis firefly luciferase (FLuc) as previously described. […] Compounds and controls were added to each plate as described in Supplementary Data 8 with a Hornet pintool system (Wako Automation). […] Luciferin was incubated with FLuc enzyme for 5 min before FLuc activity was then measured on a ViewLux CCD imager (PerkinElmer), with exposure times up to ten seconds with medium to high gain settings. […]
Measure Name: IC50 (mM)

COc1ccc(C(=O)N[C@@H]2CN(C(=O)Nc3ccc(OC(F)(F)F)cc3)CCC[C@H]2O)cc1 : 0.0111
O=C1c2cnc(-c3ccc(F)cc3)nc2OCCN1CC1CC1 : 0.0143
COc1ccc(-c2cc3c(=O)n(CCNC(=O)c4c(F)cccc4Cl)ccn3n2)cc1 : 0.007

1 = Cc1ccc(-c2cc(C(=O)O)n(C)c2)cc1
2 = Cc1ccc(-n2ncc3c(N4CCCCCC4)ncnc32)cc1Cl
3 = O=C(O)c1ccc(-c2noc(-c3ccccc3F)n2)cc1
4 = CNC(=O)c1cccc(-c2cnc(Nc3cccnc3OC)c3c2CCO3)c1
5 = COc1cc(F)ccc1-c1ccc(COc2ccc3c(cnn3CCC(=O)O)c2)cc1
## Input Sort these molecules on IC50 so the largest reading comes first. # answer = labels listed in requested order
## Output 5, 1, 4, 2, 3

---

Efficacy (%) NLuc (- ATP) by entry:
# Test System: NLuc (Oplophorus gracilirostris, UniProt Q9GV45, A31E/A60N/A81I/F95D/I117V/K70R/L54V/L99Q/M102K/N193R/P142E/Q151K/Q38R/Q45L/V71I/Y165I)
# Construct: His tag (inferred from IMAC purification); made in house; host or cells: E. coli
# Sequence (Q9GV45 other isoform, or with tags, fused parts or gaps with the stated changes): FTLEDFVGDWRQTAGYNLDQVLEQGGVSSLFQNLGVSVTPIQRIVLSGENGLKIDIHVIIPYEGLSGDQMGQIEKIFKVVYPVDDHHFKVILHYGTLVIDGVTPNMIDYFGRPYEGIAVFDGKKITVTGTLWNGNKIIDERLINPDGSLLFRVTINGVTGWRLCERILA
# Assay type: biochemical
# Experimental Setup: - ATP
Express it in %; write the number only.

Before answering, review these 10 worked examples.
COc1cccc(CNC(=O)C2CCN(C(=O)c3ncn4c3COC(c3ccc(C)cc3)C4)CC2)c1 (centres unmarked) : -7.20
O=C(NCC1CCCO1)C1CCN(C(=O)c2ncn3c2COC(c2ccc(F)cc2)C3)CC1 (centres unmarked) : 0.00
O=C(NCc1ccccc1Cl)C1CCN(C(=O)c2ncn3c2COC(c2ccccc2)C3)CC1 (centres unmarked) : 15.00
COc1ccc(C2Cn3cnc(C(=O)N4CCC(C(=O)NC5CCCC5)CC4)c3CO2)cc1 (centres unmarked) : 0.00
COc1ccc(C)cc1NC(=O)C1CCN(C(=O)c2ncn3c2COC(c2ccc(F)cc2)C3)CC1 (centres unmarked) : 0.00
O=C(NCc1ccncc1)C1CCN(C(=O)c2ncn3c2COC(c2ccccc2)C3)CC1 (centres unmarked) : 0.00
O=C(NCc1cccc(F)c1)C1CCN(C(=O)c2ncn3c2COC(c2ccccc2)C3)CC1 (centres unmarked) : 0.00
O=C(NC1CCCCCC1)C1CCN(C(=O)c2ncn3c2COC(c2ccccc2)C3)CC1 (centres unmarked) : 0.00
COc1ccc(C2Cn3cnc(C(=O)N4CCC(C(=O)NCC(C)C)CC4)c3CO2)cc1 (centres unmarked) : 0.00
O=C(NCC1CC1)C1CCN(C(=O)c2ncn3c2COC(c2ccccc2)C3)CC1 (centres unmarked) : 0.00

Summary for this molecule, O=C(NCCc1ccccc1)C1CCN(C(=O)c2ncn3c2COC(c2ccc(Cl)cc2)C3)CC1 (centres unmarked) : Efficacy (%) NLuc (- ATP) is 0.00
